Values from patent US20220364989A1

Experiment: NAC depletion under and without ultraviolet irradiation, HPLC with UV detection (281 nm)
Conditions: 25° C. 24 hours light-shielded, test substance solution 1 mmol/L
value-kind: NAC Depletion (%) without light irradiation

| compound | unit-label | observed-value |
| --- | --- | --- |
| COc1c2ccoc2cc2oc(=O)ccc12 | % | 1.1 |
| O=C([O-])Cc1ccccc1Nc1c(Cl)cccc1Cl.[Na+] | % | 0.6 |
| CC(C)OC(=O)C(C)(C)Oc1ccc(C(=O)c2ccc(Cl)cc2)cc1 | % | 0.0 |
| CCO | % | 0.0 |
| CC(CN1c2ccccc2Sc2ccccc21)N(C)C.Cl (racemic) | % | 27.6 |
| Cc1ccc(C=C2C(=O)C3(C)CCC2C3(C)C)cc1 (racemic) | % | 0.7 |
